Tested on: XF 498 CNS
experiment_notes: NCI tumour cell line growth inhibition, 48 h
Would you mind telling me the reported TGI of each entry?
Give the number; µM is assumed, so skip it.

Ask | Quick check: TGI of CC(=O)OC1(C(C)=O)CC2(c3ccccc3)OC1(c1ccccc1)c1ccccc12 (stereo not given) ?
Reply | 33.3

Ask | Quick check: TGI of COc1cc(C2c3cc4c(cc3[C@@H](Nc3ccc(F)cc3)C3COC(=O)[C@H]23)OCO4)cc(OC)c1O (stereo not given in full) ?
Reply | 18.2

----------
System: 786-0 renal
experiment_notes: NCI tumour cell line growth inhibition, 48 h
Would you mind telling me the reported TGI of each entry?
Give the number; µM is assumed, so skip it.

Ask | Quick check: TGI of CCOC(=O)C(=O)CC(=O)C(Br)C(Br)c1ccc(Cl)cc1 (centres undefined) ?
Reply | 34

Ask | Quick check: TGI of `O=[N+]([O-])C(/C=C(\Cl)[N+](=O)[O-])=C(N1CCOCC1)N1CCOCC1` ?
Reply | 30.7

Ask | Quick check: TGI of O=C(CC1(O)C(=O)Nc2ccc(Cl)cc21)c1ccc(C(=O)NCC2CCC3(CC2)OOC2(CCCCC2)OO3)cc1 (centres undefined) ?
Reply | 1.86

Ask | Quick check: TGI of `Cc1ccc2nc(CN(CCN(Cc3nc4ccc(C)cc4[nH]3)Cc3nc4ccc(C)cc4[nH]3)Cc3nc4ccc(C)cc4[nH]3)[nH]c2c1` ?
Reply | 3.15
